target of assay: HCV NS3/4A protease complex, BMS strain (UniProt P27958, species not given/STRAIN_BMS)
Construct: other: NS3/4A BMS strain; activity range class; numeric values, unit not given; said of H77 and J4L6S; fused on or other part: A three-lysine solubilising tail at the C-terminus of NS4A; A His tag is implied by the pET21b vector and Ni-NTA purification; Both are printed for the H77 and J4L6S constructs and apply to BMS by inference
Sequence (P27958 1027-1657, change not shown, one chain of several): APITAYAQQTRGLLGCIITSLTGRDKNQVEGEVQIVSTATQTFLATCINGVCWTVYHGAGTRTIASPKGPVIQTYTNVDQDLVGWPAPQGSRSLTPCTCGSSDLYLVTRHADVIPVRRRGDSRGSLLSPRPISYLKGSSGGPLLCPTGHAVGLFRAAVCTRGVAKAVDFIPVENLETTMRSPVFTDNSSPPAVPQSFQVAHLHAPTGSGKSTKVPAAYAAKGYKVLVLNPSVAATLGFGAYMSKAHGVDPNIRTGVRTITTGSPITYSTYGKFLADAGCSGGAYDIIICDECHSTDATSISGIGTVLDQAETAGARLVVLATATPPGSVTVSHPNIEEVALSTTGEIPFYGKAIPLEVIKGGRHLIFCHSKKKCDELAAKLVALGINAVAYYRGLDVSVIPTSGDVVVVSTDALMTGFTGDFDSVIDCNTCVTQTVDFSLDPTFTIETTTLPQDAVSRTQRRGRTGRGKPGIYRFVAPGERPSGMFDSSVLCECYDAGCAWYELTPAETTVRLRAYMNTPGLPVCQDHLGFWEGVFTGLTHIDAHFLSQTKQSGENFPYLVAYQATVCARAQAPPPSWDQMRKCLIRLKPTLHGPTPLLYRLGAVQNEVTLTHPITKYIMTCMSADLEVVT
assay explanation: FRET peptide assay to monitor HCV NS3/4A proteolytic activity (BMS strain)
Type: biochemical, Hepatitis C virus (genotype 1a)
condition: read-out: HCV Protease (IC50); NS3/4A BMS strain; activity range class
pIC50: −log10 of the molar value.
# reported pIC50; entries follow

{"compound": "C=C[C@@H]1C[C@]1(NC(=O)[C@@H]1C[C@@H](Oc2ncc(OC)c3ccc(Cl)cc23)CN1C(=O)[C@@H](Nc1cccc(S(=O)(=O)NC)c1)C(C)(C)C)C(=O)NS(=O)(=O)C1CC1 [227 first isomer]", "pIC50": "7.70 to 9.22"}
{"compound": "C=C[C@@H]1C[C@]1(NC(=O)[C@@H]1C[C@@H](Oc2ncc(OC)c3ccc(Cl)cc23)CN1C(=O)C(Nc1ccc(OC(F)F)nc1)C(C)(C)C)C(=O)NS(=O)(=O)C1CC1 (single isomer, unassigned) [409 - second isomer]", "pIC50": "< 6.70"}
{"compound": "C=C[C@@H]1C[C@]1(NC(=O)[C@@H]1C[C@@H](Oc2ncc(OC)c3ccc(Cl)cc23)CN1C(=O)C(Nc1ccc(OC(F)F)nc1)C(C)(C)C)C(=O)NS(=O)(=O)C1CC1 (single isomer, unassigned) [409 - first isomer]", "pIC50": "6.70 to 7.70"}
{"compound": "C=C[C@@H]1C[C@]1(NC(=O)[C@@H]1C[C@@H](Oc2ncc(OC)c3ccc(Cl)cc23)CN1C(=O)[C@H](Nc1cccc(S(=O)(=O)NC)c1)C(C)(C)C)C(=O)NS(=O)(=O)C1CC1 [227 second isomer]", "pIC50": "< 6.70"}
{"compound": "C=C[C@@H]1C[C@]1(NC(=O)[C@@H]1C[C@@H](Oc2ncc(OC)c3ccc(Cl)cc23)CN1C(=O)[C@H](Nc1ccc(C(N)=O)cc1)C(C)(C)C)C(=O)NS(=O)(=O)C1CC1 [226 second isomer]", "pIC50": "< 6.70"}

---

List of pEC50 values.
Test system: HCV replicon (strain 1b) in HUH-7 cells
assay explanation: HCV replicon FRET assay
Type: cell-based, Hepatitis C virus
condition: Hepatitis C virus, Huh-7, read-out: HCV Pro Replicon (EC50), HCV replicon cell assay; numeric values, unit inferred
pEC50: −log10 of the molar value.

{"compound": "C=C[C@@H]1C[C@]1(NC(=O)[C@@H]1C[C@@H](Oc2ncc(OC)c3ccc(Cl)cc23)CN1C(=O)C(Nc1cccc(C#N)c1)C(C)(C)C)C(=O)NS(=O)(=O)C1CC1 (some centres unmarked) [Compound 203A]", "target of assay": "HCV replicon (strain 1b) in HUH-7 cells", "pEC50": 8.81}
{"compound": "C=CC1CC1(NC(=O)C1CC(Oc2ncc(OC)c3ccc(Cl)cc23)CN1C(=O)C(Nc1cccc(F)c1)C(C)(C)C)C(=O)NS(=O)(=O)C1CC1 (centres unmarked) [Compound 200B]", "target of assay": "HCV replicon (strain 1b) in HUH-7 cells", "pEC50": 6.71}
{"compound": "C=C[C@@H]1C[C@]1(NC(=O)[C@@H]1C[C@@H](Oc2nccc3cc(OC)ccc23)CN1C(=O)[C@H](Nc1cc(C)cc(C)n1)C(C)C)C(=O)NS(=O)(=O)C1CC1", "target of assay": "HCV replicon (strain 1b) in HUH-7 cells", "pEC50": 5.79}
{"compound": "C=C[C@@H]1C[C@]1(NC(=O)[C@@H]1C[C@@H](Oc2nccc3cc(OC)ccc23)CN1C(=O)[C@H](Nc1cccnc1)C(C)(C)C)C(=O)NS(=O)(=O)C1CC1 [Compound 13B]", "target of assay": "HCV replicon (strain 1b) in HUH-7 cells", "pEC50": 5.24}
{"compound": "C=C[C@@H]1C[C@]1(NC(=O)[C@@H]1C[C@@H](Oc2ncc(OC)c3ccc(Cl)cc23)CN1C(=O)[C@H](Nc1ccc(S(N)(=O)=O)cc1)C(C)(C)C)C(=O)NS(=O)(=O)C1CC1 [Compound 215B]", "target of assay": "HCV replicon (strain 1b) in HUH-7 cells", "pEC50": 5.26}

---

target of assay: HCV NS3/4A protease complex, BMS strain (UniProt P27958, species not given/STRAIN_BMS)
Construct: other: NS3/4A BMS strain; activity range class; numeric values, unit not given; said of H77 and J4L6S; fused on or other part: A three-lysine solubilising tail at the C-terminus of NS4A; A His tag is implied by the pET21b vector and Ni-NTA purification; Both are printed for the H77 and J4L6S constructs and apply to BMS by inference
assay explanation: FRET peptide assay to monitor HCV NS3/4A proteolytic activity (BMS strain)
Type: biochemical, Hepatitis C virus (genotype 1a)
condition: read-out: HCV Protease (IC50); NS3/4A BMS strain; activity range class

{"compound": "C=C[C@@H]1C[C@]1(NC(=O)[C@@H]1C[C@@H](Oc2ncc(OC)c3ccc(Cl)cc23)CN1C(=O)C(Nc1cc(C)nc(C)c1)C(C)(C)C)C(=O)NS(=O)(=O)C1CC1 (single isomer, unassigned) [Compound 29A]", "IC50": "0.6 to 20 nM"}
{"compound": "C=C[C@@H]1C[C@]1(NC(=O)[C@@H]1C[C@@H](Oc2ncc(OC)c3ccc(Cl)cc23)CN1C(=O)[C@H](Nc1cccc(S(N)(=O)=O)c1)C(C)(C)C)C(=O)NS(=O)(=O)C1CC1 [207 second isomer]", "IC50": "> 200 nM"}
{"compound": "C=C[C@@H]1C[C@]1(NC(=O)[C@@H]1C[C@@H](Oc2ncc(OC)c3ccc(Cl)cc23)CN1C(=O)C(Nc1cc(C)cc(C)n1)C(C)(C)C)C(=O)NS(=O)(=O)C1CC1 (single isomer, unassigned) [22 second isomer]", "IC50": "0.6 to 20 nM"}
{"compound": "C=C[C@@H]1C[C@]1(NC(=O)[C@@H]1C[C@@H](Oc2ncc(OC)c3ccc(Cl)cc23)CN1C(=O)C(Nc1cccc(C)n1)C(C)(C)C)C(=O)NS(=O)(=O)C1CC1 (single isomer, unassigned) [28 first isomer]", "IC50": "0.6 to 20 nM"}

---

Test system: HCV replicon (strain 1b) in HUH-7 cells
assay explanation: HCV replicon FRET assay
Assay type: cell-based, Hepatitis C virus
condition: Hepatitis C virus, Huh-7, read-out: HCV Pro Replicon (EC50), HCV replicon cell assay; numeric values, unit inferred
pEC50: −log10 of the molar value.
# if value of pEC50 reaches 5, tag 1 (yes); if it stays below, tag 0 (no)

{"compound": "C=C[C@@H]1C[C@]1(NC(=O)[C@@H]1C[C@@H](Oc2ncc(OC)c3ccc(Cl)cc23)CN1C(=O)C(Nc1cc(C)nc(C)c1)C(C)(C)C)C(=O)NS(=O)(=O)C1CC1 (single isomer, unassigned) [Compound 29B]", "class": "0 (no)"}
{"compound": "C=C[C@@H]1C[C@]1(NC(=O)[C@@H]1C[C@@H](Oc2nc(N(C)C)cc3cc(OC)ccc23)CN1C(=O)C(Nc1ccccc1)C(C)(C)C)C(=O)NS(=O)(=O)C1CC1 (single isomer, unassigned) [Compound 19B]", "class": "1 (yes)"}
{"compound": "C=C[C@@H]1C[C@]1(NC(=O)[C@@H]1C[C@@H](Oc2ncc(OC)c3ccc(Cl)cc23)CN1C(=O)C(Nc1cccc(OC)c1)C(C)(C)C)C(=O)NS(=O)(=O)C1CC1 (single isomer, unassigned) [Compound 201A]", "class": "1 (yes)"}
{"compound": "C=C[C@@H]1C[C@]1(NC(=O)[C@@H]1C[C@@H](Oc2ncc(OC)c3ccc(Cl)cc23)CN1C(=O)[C@@H](Nc1cncc(Cl)c1)C(C)(C)C)C(=O)NS(=O)(=O)C1CC1 [Compound 33]", "class": "1 (yes)"}
{"compound": "C=C[C@@H]1C[C@]1(NC(=O)[C@@H]1C[C@@H](Oc2ncc(OC)c3ccc(Cl)cc23)CN1C(=O)C(Nc1cc(Cl)cc(Cl)n1)C(C)(C)C)C(=O)NS(=O)(=O)C1CC1 (single isomer, unassigned) [Compound 32A]", "class": "1 (yes)"}

---

target of assay: HCV NS3/4A protease complex, BMS strain (UniProt P27958, species not given/STRAIN_BMS)
Construct: other: NS3/4A BMS strain; activity range class; numeric values, unit not given; said of H77 and J4L6S; fused on or other part: A three-lysine solubilising tail at the C-terminus of NS4A; A His tag is implied by the pET21b vector and Ni-NTA purification; Both are printed for the H77 and J4L6S constructs and apply to BMS by inference
assay explanation: FRET peptide assay to monitor HCV NS3/4A proteolytic activity (BMS strain)
Assay type: biochemical, Hepatitis C virus (genotype 1a)
condition: read-out: HCV Protease (IC50); NS3/4A BMS strain; numeric values, unit inferred
Source text: HCV NS3 protease complexes, derived from the BMS strain, H77 strain or J4L6S strain, were generated, as described below. […] In order to monitor HCV NS3/4A protease activity, an NS3/4A peptide substrate was used. […] The peptide also contains a fluorescence donor, EDANS, near one end of the peptide and an acceptor, DABCYL, near the other end. […]
pIC50: −log10 of the molar value.
Items are presented alongside their recorded pIC50.

{"molecule": "C=C[C@@H]1C[C@]1(NC(=O)[C@@H]1C[C@@H](Oc2ncc(OC)c3ccc(Cl)cc23)CN1C(=O)C(Nc1ccc(C)nc1)C(C)(C)C)C(=O)NS(=O)(=O)C1CC1 (single isomer, unassigned) [Compound 26B]", "pIC50": 5.89}
{"molecule": "C=C[C@@H]1C[C@]1(NC(=O)[C@@H]1C[C@@H](Oc2nccc3cc(OC)ccc23)CN1C(=O)[C@H](Nc1ccccc1)C(C)(C)C)C(=O)NS(=O)(=O)C1CC1 [Compound 15B]", "pIC50": 5.72}
{"molecule": "C=C[C@@H]1C[C@]1(NC(=O)[C@@H]1C[C@@H](Oc2nccc3cc(OC)ccc23)CN1C(=O)[C@H](Nc1cc(C)cc(C)n1)C(C)C)C(=O)NS(=O)(=O)C1CC1 [Compound 1B]", "pIC50": 6.54}
{"molecule": "C=C[C@@H]1C[C@]1(NC(=O)[C@@H]1C[C@@H](Oc2nccc3cc(OC)ccc23)CN1C(=O)[C@@H](NC1=NCCCS1)C(C)(C)C)C(=O)NS(=O)(=O)C1CC1 [Compound 36]", "pIC50": 7.14}
{"molecule": "C=C[C@@H]1C[C@]1(NC(=O)[C@@H]1C[C@@H](Oc2ncc(OC)c3ccc(Cl)cc23)CN1C(=O)C(Nc1cc(Cl)cc(Cl)n1)C(C)(C)C)C(=O)NS(=O)(=O)C1CC1 (single isomer, unassigned) [Compound 32A]", "pIC50": 9.00}
